Molecular target: T1, 人EphA4-His融合蛋白 (human EphA4 extracellular domain fused to a histidine tag) (human, UniProt P54764 20-547)
T1 construct: also called rhuEphA4-His; not shown: histidine tag
T1 sequence (P54764 20-547): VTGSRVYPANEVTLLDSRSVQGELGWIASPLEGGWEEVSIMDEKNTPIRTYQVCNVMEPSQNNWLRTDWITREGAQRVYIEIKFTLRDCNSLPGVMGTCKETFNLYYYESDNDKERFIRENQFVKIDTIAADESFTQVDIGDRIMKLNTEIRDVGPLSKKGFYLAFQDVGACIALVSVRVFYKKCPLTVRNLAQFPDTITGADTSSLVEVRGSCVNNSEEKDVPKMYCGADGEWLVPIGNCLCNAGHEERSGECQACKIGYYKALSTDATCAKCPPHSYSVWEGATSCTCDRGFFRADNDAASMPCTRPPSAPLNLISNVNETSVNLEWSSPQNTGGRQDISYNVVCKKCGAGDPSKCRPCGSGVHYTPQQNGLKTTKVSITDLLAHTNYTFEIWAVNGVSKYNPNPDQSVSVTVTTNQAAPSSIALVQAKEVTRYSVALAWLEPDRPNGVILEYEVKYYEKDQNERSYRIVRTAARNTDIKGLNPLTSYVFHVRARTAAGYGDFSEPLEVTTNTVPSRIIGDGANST
Assay: secondary screen of combination variant Fabs: activity ELISA on coated human EphA4-His, normalised by Fab quantitation ELISA

# BINDER, binding result
data = [
    ("1B10 (Fab, V domains shown) VH: QVQLLQSGAEVKKPGASVKVPCKASGYTFTSRAMSWVRQAPGQGLEWMGWINTNTGNPTYAQGFTGRFVFSLDTSVSTAYLQISSLKAEDTAVYYCARVRFTVYGDGMDVWGQGTLVTVSS VL: EIVLTQSPATLSVSPGERATLSCRASQSVSSNPAWYQQKPGQAPRLLIYGASTWATGIPDRFSASGSGTDFTLTISRVEPEDFAVYYCQQYGPSWTFGQGTKVEIK", "binds"),
    ("3C6 (Fab, V domains shown) VH: QVQLLQSGAEVKKPGASVKVPCKASGYTFTSRAMSWVRQAPGQGLEWMGWINTNTGNPTYAQGFTGRFVFSLDTSVSTAYLQISSLKAEDTAVYYCARVRLTVYGDGMDVWGQGTLVTVSS VL: EIVLTQSPATLSVSPGERATLSCRASQSVSSNPPWYQQKPGQAPRLLIYGASTRATGIPDRFSASGSGTDFTLTISRVEPEDFAVYYCQQYGSSWTFGQGTKVEIK", "binds"),
]
